System: Veronica persica (VERPE)
experiment_notes: Post-emergence glasshouse test, visual injury, VERPE
Assay type: in vivo
condition_info: 336 h, Table 3, post-emergence, 500 g/ha, 14±1 days post application

{"compound": "Cc1cc(-c2cnc(N3CCCCCC3)nc2C(C)C)on1", "pest or weed control at 500 g/ha / %": 30}
{"compound": "Cc1cc(-c2cnc(N3CCC(O)CC3)nc2C(C)C)on1", "pest or weed control at 500 g/ha / %": 0}
{"compound": "Cc1cc(-c2cnc(N3CCC(C(N)=O)CC3)nc2C(C)C)on1", "pest or weed control at 500 g/ha / %": 60}
{"compound": "CC(=O)N1CCN(c2ncc(-c3cc(C)no3)c(-c3ccncc3)n2)CC1", "pest or weed control at 500 g/ha / %": 90}
{"compound": "Cc1cc(-c2cnc(NCCN3CCCC3=O)nc2C(C)C)on1", "pest or weed control at 500 g/ha / %": 60}
{"compound": "Cc1cc(-c2cnc(NCc3cccs3)nc2C2CC2)on1", "pest or weed control at 500 g/ha / %": 60}
{"compound": "Cc1cc(-c2cnc(NCc3ccccn3)nc2C2CC2)on1", "pest or weed control at 500 g/ha / %": 50}
{"compound": "Cc1cc(-c2cnc(NCc3ccncc3)nc2-c2ccc(C)o2)on1", "pest or weed control at 500 g/ha / %": 90}
{"compound": "Cc1cc(-c2cnc(N3CCCC3)nc2-c2ccc(C)o2)on1", "pest or weed control at 500 g/ha / %": 0}
{"compound": "Cc1cc(-c2cnc(NCCc3c(C)noc3C)nc2C2CC2)on1", "pest or weed control at 500 g/ha / %": 50}
{"compound": "Cc1cc(-c2cnc(N3CCN(c4ncccn4)CC3)nc2C(C)C)on1", "pest or weed control at 500 g/ha / %": 0}
{"compound": "Cc1cc(-c2cnc(NC3CCCC3)nc2-c2ccc(C)o2)on1", "pest or weed control at 500 g/ha / %": 0}
{"compound": "Cc1cc(-c2cnc(N3CCCCC3)nc2C(C)(C)C)on1", "pest or weed control at 500 g/ha / %": 0}
{"compound": "Cc1cc(-c2cnc(NCc3cccnc3)nc2C(C)C)on1", "pest or weed control at 500 g/ha / %": 98}
{"compound": "Cc1cc(-c2cnc(NCCc3c(C)noc3C)nc2C(C)C)on1", "pest or weed control at 500 g/ha / %": 70}
{"compound": "COCCCNc1ncc(-c2cc(C)no2)c(C(C)C)n1", "pest or weed control at 500 g/ha / %": 90}
{"compound": "CC(=O)N1CCN(c2ncc(-c3cc(C)no3)c(C3CC3)n2)CC1", "pest or weed control at 500 g/ha / %": 0}
{"compound": "COCCNc1ncc(-c2cc(C)no2)c(-c2ccc(C)o2)n1", "pest or weed control at 500 g/ha / %": 0}
{"compound": "Cc1cc(-c2cnc(NC3CC3)nc2-c2ccc(C)o2)on1", "pest or weed control at 500 g/ha / %": 20}
{"compound": "Cc1cc(-c2cnc(N3CCCC(O)C3)nc2C2CC2)on1 (centres unmarked)", "pest or weed control at 500 g/ha / %": 0}

====

# pest or weed control at 125 g/ha per record follows
Tested on: Amaranthus retroflexus (AMARE)
experiment_notes: Post-emergence glasshouse test, visual injury, AMARE
Type: in vivo
condition_info: 336 h, Table 3, post-emergence, 125 g/ha, 14±1 days post application
value_kind: pest or weed control at 125 g/ha (%)

{"smiles_code": "Cc1cc(-c2cnc(NC3CCCC3)nc2C)on1", "measurement": 90}
{"smiles_code": "Cc1cc(-c2cnc(NCC3CCCC3)nc2C(C)C)on1", "measurement": 30}
{"smiles_code": "Cc1cc(-c2cnc(NC3CC3)nc2C2CC2)on1", "measurement": 60}
{"smiles_code": "Cc1cc(-c2cnc(NCc3ccc(C#N)cc3)nc2C(C)C)on1", "measurement": 80}
{"smiles_code": "CCc1nc(NCc2ccc(F)cc2)ncc1-c1cc(C)no1", "measurement": 90}
{"smiles_code": "Cc1cc(-c2cnc(NC3CCCC3)nc2C2CCC2)on1", "measurement": 40}
{"smiles_code": "Cc1cc(-c2cnc(NC3CC3)nc2C(F)(F)F)on1", "measurement": 0}
{"smiles_code": "Cc1cc(-c2cnc(NCC3CCOCC3)nc2C(C)C)on1", "measurement": 40}
{"smiles_code": "Cc1cc(-c2cnc(N3Cc4ccccc4C3=N)nc2C(C)C)on1", "measurement": 30}
{"smiles_code": "Cc1cc(-c2cnc(NC3CCCC3)nc2C(F)(F)F)on1", "measurement": 90}
{"smiles_code": "Cc1cc(-c2cnc(NC3CCC3)nc2C(F)(F)F)on1", "measurement": 0}
{"smiles_code": "Cc1cc(-c2cnc(NC3CCCC3)nc2C2CC2)on1", "measurement": 80}
{"smiles_code": "Cc1cc(-c2cnc(NC(C)C)nc2C(F)(F)F)on1", "measurement": 20}

====

System: Echinochloa crus-gaffi (ECHCG)
experiment_notes: Post-emergence glasshouse test, visual injury, ECHCG
Type: in vivo, Echinochloa crus-galli
condition_info: 336 h, Table 3, post-emergence, 125 g/ha, 14±1 days post application
Decision: pest or weed control at 125 g/ha beneath 20% gives 1 (yes); pest or weed control at 125 g/ha meeting or exceeding 20% gives 0 (no).

{"compound": "Cc1cc(-c2cnc(N(C)C3CCCC3)nc2C(F)(F)F)on1", "test_system": "Echinochloa crus-gaffi (ECHCG)", "assigned_class": "1 (yes)"}
{"compound": "Cc1cc(-c2cnc(N3CCSCC3)nc2-c2ccc(C)o2)on1", "test_system": "Echinochloa crus-gaffi (ECHCG)", "assigned_class": "0 (no)"}
{"compound": "Cc1cc(-c2cnc(NC3CCCC3)nc2C(F)(F)F)on1", "test_system": "Echinochloa crus-gaffi (ECHCG)", "assigned_class": "0 (no)"}
{"compound": "Cc1cc(-c2cnc(NCc3cccnc3)nc2C(F)(F)F)on1", "test_system": "Echinochloa crus-gaffi (ECHCG)", "assigned_class": "1 (yes)"}
{"compound": "Cc1cc(-c2cnc(NC3CCC3)nc2C(F)(F)F)on1", "test_system": "Echinochloa crus-gaffi (ECHCG)", "assigned_class": "1 (yes)"}
{"compound": "Cc1cc(-c2cnc(NC3CC3)nc2C2CC2)on1", "test_system": "Echinochloa crus-gaffi (ECHCG)", "assigned_class": "0 (no)"}
{"compound": "Cc1cc(-c2cnc(NC3CCc4sc(Cl)cc43)nc2C(C)C)on1 (centres unmarked)", "test_system": "Echinochloa crus-gaffi (ECHCG)", "assigned_class": "0 (no)"}
{"compound": "Cc1cc(-c2cnc(NC3CCCC3)nc2C(F)F)on1", "test_system": "Echinochloa crus-gaffi (ECHCG)", "assigned_class": "1 (yes)"}
{"compound": "Cc1cc(-c2cnc(NCc3ccc(F)cc3)nc2C(F)(F)F)on1", "test_system": "Echinochloa crus-gaffi (ECHCG)", "assigned_class": "0 (no)"}
{"compound": "Cc1cc(-c2cnc(NCc3cccc(F)c3)nc2C(F)(F)F)on1", "test_system": "Echinochloa crus-gaffi (ECHCG)", "assigned_class": "0 (no)"}
{"compound": "Cc1cc(-c2cnc(N(C)C3CCCC3)nc2C(C)C)on1", "test_system": "Echinochloa crus-gaffi (ECHCG)", "assigned_class": "0 (no)"}
{"compound": "Cc1cc(-c2cnc(NC3CCCC3)nc2C2CC2)on1", "test_system": "Echinochloa crus-gaffi (ECHCG)", "assigned_class": "0 (no)"}
{"compound": "Cc1cc(-c2cnc(NCc3ccc(Cl)cc3)nc2C(C)C)on1", "test_system": "Echinochloa crus-gaffi (ECHCG)", "assigned_class": "0 (no)"}
{"compound": "CCc1nc(NCc2ccc(F)cc2)ncc1-c1cc(C)no1", "test_system": "Echinochloa crus-gaffi (ECHCG)", "assigned_class": "0 (no)"}
{"compound": "Cc1cc(-c2cnc(NCC3CCOCC3)nc2C(C)C)on1", "test_system": "Echinochloa crus-gaffi (ECHCG)", "assigned_class": "1 (yes)"}
{"compound": "Cc1cc(-c2cnc(NC3CCOCC3)nc2C(C)C)on1", "test_system": "Echinochloa crus-gaffi (ECHCG)", "assigned_class": "0 (no)"}
{"compound": "Cc1cc(-c2cnc(NC3CCCCC3)nc2C(C)C)on1", "test_system": "Echinochloa crus-gaffi (ECHCG)", "assigned_class": "0 (no)"}
{"compound": "Cc1cc(-c2cnc(N3CCN(c4ncccn4)CC3)nc2-c2ccc(C)o2)on1", "test_system": "Echinochloa crus-gaffi (ECHCG)", "assigned_class": "1 (yes)"}
{"compound": "Cc1cc(-c2cnc(NC3CCOCC3)nc2C(F)(F)F)on1", "test_system": "Echinochloa crus-gaffi (ECHCG)", "assigned_class": "1 (yes)"}
{"compound": "Cc1cc(-c2cnc(NC3CCCC3)nc2C2CCC2)on1", "test_system": "Echinochloa crus-gaffi (ECHCG)", "assigned_class": "1 (yes)"}

Values compiled from patent US20230329236A1.
